# measured.target: CDK1/CCNB1 (Homo sapiens, UniProt P06493)
# Sequence (P06493 whole entry): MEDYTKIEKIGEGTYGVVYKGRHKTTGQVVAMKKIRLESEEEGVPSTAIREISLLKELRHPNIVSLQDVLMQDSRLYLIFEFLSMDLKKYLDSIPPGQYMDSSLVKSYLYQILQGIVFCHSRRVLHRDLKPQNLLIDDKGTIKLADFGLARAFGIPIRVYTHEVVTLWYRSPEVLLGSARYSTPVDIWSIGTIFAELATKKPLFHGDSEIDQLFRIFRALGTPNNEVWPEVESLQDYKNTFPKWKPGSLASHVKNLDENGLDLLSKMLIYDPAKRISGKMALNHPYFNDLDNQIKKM
# Sequence (P14635 whole entry partner): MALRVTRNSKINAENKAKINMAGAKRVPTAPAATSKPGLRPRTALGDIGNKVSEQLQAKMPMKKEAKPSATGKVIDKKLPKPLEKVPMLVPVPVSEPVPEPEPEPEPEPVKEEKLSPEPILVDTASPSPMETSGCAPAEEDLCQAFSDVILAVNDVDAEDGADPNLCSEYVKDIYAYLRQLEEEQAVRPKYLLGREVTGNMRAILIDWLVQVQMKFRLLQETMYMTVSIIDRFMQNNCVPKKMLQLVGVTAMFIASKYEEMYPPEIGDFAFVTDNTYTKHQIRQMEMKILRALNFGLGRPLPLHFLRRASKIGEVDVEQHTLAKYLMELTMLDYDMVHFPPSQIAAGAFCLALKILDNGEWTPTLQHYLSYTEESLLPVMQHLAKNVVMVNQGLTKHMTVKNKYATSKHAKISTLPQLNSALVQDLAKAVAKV
# assay.notes: CDK1 homogeneous time-resolved fluorescence (HTRF) kinase assay
# Assay type: biochemical
# condition.parameters: CDK1/CCNB IC50 >250 nM, CDK1/CCNB; >250 nM marked x
measured.property: IC50

[in] Request - read-out IC50 | tested on CDK1/CCNB1 (Homo sapiens, UniProt P06493) | compound CS(=O)(=O)c1ccc(Nc2cc3c(C4=CCNCC4)nccc3cn2)cc1
[out] > 250 nM

###

# measured.target: CDK6/CCND1 (Homo sapiens, UniProt Q00534)
# Sequence (Q00534 whole entry): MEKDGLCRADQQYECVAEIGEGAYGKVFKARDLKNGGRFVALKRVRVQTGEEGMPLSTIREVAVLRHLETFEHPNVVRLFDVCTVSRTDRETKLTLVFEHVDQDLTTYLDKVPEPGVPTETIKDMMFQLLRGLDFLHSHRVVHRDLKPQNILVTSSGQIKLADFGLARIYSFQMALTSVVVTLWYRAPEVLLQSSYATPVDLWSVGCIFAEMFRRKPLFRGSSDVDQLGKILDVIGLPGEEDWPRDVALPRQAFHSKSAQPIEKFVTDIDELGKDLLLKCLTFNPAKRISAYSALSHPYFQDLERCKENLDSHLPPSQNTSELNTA
# Sequence (P24385 whole entry partner): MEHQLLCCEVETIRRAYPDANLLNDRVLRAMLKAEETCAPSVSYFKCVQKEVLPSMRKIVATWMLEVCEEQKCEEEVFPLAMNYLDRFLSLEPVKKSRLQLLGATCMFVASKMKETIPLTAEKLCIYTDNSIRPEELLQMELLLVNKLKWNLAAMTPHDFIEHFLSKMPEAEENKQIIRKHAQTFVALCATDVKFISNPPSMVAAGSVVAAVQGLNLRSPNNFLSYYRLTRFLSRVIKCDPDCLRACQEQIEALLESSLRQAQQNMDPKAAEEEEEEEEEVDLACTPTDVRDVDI
# assay.notes: CDK6 homogeneous time-resolved fluorescence (HTRF) kinase assay
# Assay type: biochemical
# condition.parameters: 25-250 nM; CDK6/CCND; 1 mM ATP; read-out: CDK6/CCND IC50, 25-250 nM
pIC50: −log10 of the molar value.
Here, each record is paired with measured pIC50 data.

Example entries begin here.
{"molecule": "Cc1c(-c2nccc3cnc(Nc4ccc(S(=O)(=O)NC5CCOCC5)cc4)cc23)ccc2c1cnn2CC(C)(C)O", "measured.target": "CDK6/CCND1 (Homo sapiens, UniProt Q00534)", "measured.property": "pIC50", "recorded.measurement": "6.60 to 7.60"}
{"molecule": "Cc1c(-c2nccc3cnc(Nc4ccc(S(C)(=O)=O)cn4)cc23)ccc2c1cnn2CC(C)(C)O", "measured.target": "CDK6/CCND1 (Homo sapiens, UniProt Q00534)", "measured.property": "pIC50", "recorded.measurement": "6.60 to 7.60"}
{"molecule": "Cc1c(-c2nccc3cnc(Nc4ccc(S(=O)(=O)Nc5ccc(N6CCOCC6)nn5)cc4)cc23)ccc2c1cnn2CC(C)(C)O", "measured.target": "CDK6/CCND1 (Homo sapiens, UniProt Q00534)", "measured.property": "pIC50", "recorded.measurement": "6.60 to 7.60"}
{"molecule": "CC(=O)NC1CCN(c2ccc(Nc3cc4c(-c5ccc6c(cnn6CC(C)(C)O)c5C)nccc4cn3)cc2S(C)(=O)=O)C1 (stereo not shown)", "measured.target": "CDK6/CCND1 (Homo sapiens, UniProt Q00534)", "measured.property": "pIC50", "recorded.measurement": "6.60 to 7.60"}

[in] Report pIC50 for Cc1c(-c2nccc3cnc(Nc4ccc(NS(=O)(=O)c5cccnn5)cc4)cc23)ccc2c1cnn2CC(C)(C)O tested on CDK6/CCND1 (Homo sapiens, UniProt Q00534).
[out] 6.60 to 7.60

[in] Please provide the recorded pIC50 for CN1CCN(c2ccc(C#Cc3nccc4cnc(Nc5ccc(S(N)(=O)=O)cc5)cc34)cc2)CC1 , tested on CDK6/CCND1 (Homo sapiens, UniProt Q00534).
[out] 6.60 to 7.60

[in] Missing value: pIC50, CDK6/CCND1 (Homo sapiens, UniProt Q00534), entry Cc1c(-c2nccc3cnc(Nc4ccc(NS(=O)(=O)c5cnccn5)cc4)cc23)ccc2c1cnn2CC(C)(C)O . Fill in?
[out] 6.60 to 7.60

These entries and their values trace back to patent US20260325533A1.
